Attribution: ChEMBL document CHEMBL2417520

# System: A549
# Experimental details: Cytotoxicity against human A549 cells assessed as cell growth inhibition at 50 uM after 48 hrs by sulphorhodamine B assay
# Assay type: functional
# Stated conditions: A549, 48 h, read-out: GI
Readout name: inhibition of growth at 50 µM
State the value with its unit after it.

Worked examples follow.
[[record]]
chem_smiles = "CC1=C2C[C@H]3O[C@@]3(C)[C@@H]2[C@H]2OC(=O)[C@@H](Cn3ncc4ccc([N+](=O)[O-])cc43)[C@@H]2CC1"
measured = "84%"

[[record]]
chem_smiles = "CC1=C2C[C@H]3O[C@@]3(C)[C@@H]2[C@H]2OC(=O)[C@@H](Cn3ccnc3)[C@@H]2CC1"
measured = "0%"

[[record]]
chem_smiles = "CCNC[C@@H]1C(=O)O[C@H]2[C@H]1CCC(C)=C1C[C@H]3O[C@@]3(C)[C@@H]12"
measured = "20%"


Next up:
Which inhibition of growth at 50 µM reading was recorded for the compound CC1=C2C[C@H]3O[C@@]3(C)[C@@H]2[C@H]2OC(=O)[C@@H](Cn3ncc4cc([N+](=O)[O-])ccc43)[C@@H]2CC1 ? 99%
